Reference for the values: ChEMBL document CHEMBL1151684

# Test system: UACC-62
# Assay details: Growth inhibition of human UACC-62 cells after 48 hrs by sulforhodamine B assay
# Type: functional
# Condition: UACC-62, 48 h
Measured property: GI50

INSERT INTO assay_data (chemical_smiles, test_system, observed) VALUES
  ('CN(C)c1ccc(-c2nc(-c3n[nH]c(=S)n3N)cc3c2[nH]c2ccccc23)cc1', 'UACC-62', '50.4 µM'),
  ('CN(C)c1ccc(-c2nc(-c3n[nH]c(=S)o3)cc3c2[nH]c2ccccc23)cc1', 'UACC-62', '23.8 µM'),
  ('O=[N+]([O-])c1cccc(-c2nc(-c3n[nH]c(=S)o3)cc3c2[nH]c2ccccc23)c1', 'UACC-62', '24.1 µM'),
  ('COc1cc(-c2nc(-c3n[nH]c(=S)o3)cc3c2[nH]c2ccccc23)ccc1O', 'UACC-62', '17.3 µM'),
  ('S=c1[nH]nc(-c2cc3c([nH]c4ccccc43)c(-c3ccccc3)n2)o1', 'UACC-62', '> 100 µM');

Task item: Requested field: GI50. Item: "CSc1nnc(-c2cc3c([nH]c4ccccc43)c(-c3ccc(O)cc3)n2)o1"
Reply: 19.1 µM

---

Below, each entry is listed with its recorded GI50.
# Tested on: HT-29
# Assay details: Growth inhibition of human HT-29 cells after 48 hrs by sulforhodamine B assay
# Assay type: functional
# Condition: HT-29, 48 h
Numeric only. Scale: µM

Worked set:
INSERT INTO measurements (chemical_smiles, test_system, measured_property, observed) VALUES
  ('CN(C)c1ccc(-c2nc(-c3n[nH]c(=S)[nH]3)cc3c2[nH]c2ccccc23)cc1', 'HT-29', 'GI50', 8.63),
  ('S=c1[nH]nc(-c2cc3c([nH]c4ccccc43)c(-c3ccccc3Cl)n2)o1', 'HT-29', 'GI50', 17.4),
  ('Nn1c(-c2cc3c([nH]c4ccccc43)c(-c3ccc(O)cc3)n2)n[nH]c1=S', 'HT-29', 'GI50', 34);

Task item: Requested field: GI50. Item: "Oc1ccc(-c2nc(-c3n[nH]c(=S)[nH]3)cc3c2[nH]c2ccccc23)cc1"
Reply: 46.2

Task item: Follow-up entry: "CSc1nnc(-c2cc3c([nH]c4ccccc43)c(-c3cccc([N+](=O)[O-])c3)n2)o1"
Reply: 68.1

Task item: Follow-up entry: "S=c1[nH]nc(-c2cc3c([nH]c4ccccc43)c(-c3ccccc3)n2)[nH]1"
Reply: 35.5

---

# Test system: HT-29
# Assay details: Growth inhibition of human HT-29 cells after 48 hrs by sulforhodamine B assay
# Type: functional
# Condition: HT-29, 48 h
Measured property: GI50 (µM)
Numeric only. Scale: µM

INSERT INTO assay_data (chemical_smiles, measured_property, observed) VALUES
  ('Nn1c(-c2cc3c([nH]c4ccccc43)c(-c3ccccc3Cl)n2)n[nH]c1=S', 'GI50', 33);

Task item: Requested field: GI50. Item: "Nn1c(-c2cc3c([nH]c4ccccc43)c(-c3ccccc3)n2)n[nH]c1=S"
Reply: 15

Task item: Follow-up entry: "CSc1nnc(-c2cc3c([nH]c4ccccc43)c(-c3ccccc3Cl)n2)n1N"
Reply: 20.4

Task item: Follow-up entry: "CSc1nnc(-c2cc3c([nH]c4ccccc43)c(-c3ccc(N(C)C)cc3)n2)o1"
Reply: 87.4

---

Below, each entry is listed with its recorded log10(GI50).
# System: 786-0
# Assay details: Growth inhibition of human 786-0 cells after 48 hrs by sulforhodamine B assay
# Type: functional
# Condition: 786-0, 48 h
Remember, log10 of GI50, in µM.

Worked set:
INSERT INTO assay_data (chemical_smiles, observed) VALUES
  ('S=c1[nH]nc(-c2cc3c([nH]c4ccccc43)c(-c3ccccc3)n2)o1', 1.45),
  ('CSc1nnc(-c2cc3c([nH]c4ccccc43)c(-c3ccc(O)cc3)n2)o1', 1.07),
  ('O=[N+]([O-])c1ccc(-c2nc(-c3n[nH]c(=S)o3)cc3c2[nH]c2ccccc23)cc1', 1.86),
  ('Nn1c(-c2cc3c([nH]c4ccccc43)c(-c3ccccc3Cl)n2)n[nH]c1=S', 1.60),
  ('CSc1nnc(-c2cc3c([nH]c4ccccc43)c(-c3ccccc3Cl)n2)o1', 1.69);

Task item: Requested field: log10(GI50). Item: "CSc1nnc(-c2cc3c([nH]c4ccccc43)c(-c3ccccc3)n2)o1"
Reply: 1.51

Task item: Follow-up entry: "Nn1c(-c2cc3c([nH]c4ccccc43)c(-c3ccc(O)cc3)n2)n[nH]c1=S"
Reply: -0.59

Task item: Follow-up entry: "CN(C)c1ccc(-c2nc(-c3n[nH]c(=S)[nH]3)cc3c2[nH]c2ccccc23)cc1"
Reply: -1.40

Task item: Follow-up entry: "COc1ccc(-c2nc(-c3n[nH]c(=S)o3)cc3c2[nH]c2ccccc23)cc1"
Reply: 1.50

Task item: Follow-up entry: "S=c1[nH]nc(-c2cc3c([nH]c4ccccc43)c(-c3ccccc3Cl)n2)o1"
Reply: 1.45

Task item: Follow-up entry: "COc1cc(-c2nc(-c3n[nH]c(=S)o3)cc3c2[nH]c2ccccc23)ccc1O"
Reply: 1.35

Task item: Follow-up entry: "CN(C)c1ccc(-c2nc(-c3n[nH]c(=S)n3N)cc3c2[nH]c2ccccc23)cc1"
Reply: -0.01

Task item: Follow-up entry: "Nn1c(-c2cc3c([nH]c4ccccc43)c(-c3ccccc3)n2)n[nH]c1=S"
Reply: 1.04

Task item: Follow-up entry: "S=c1[nH]nc(-c2cc3c([nH]c4ccccc43)c(-c3ccccc3)n2)[nH]1"
Reply: 0.88

Task item: Follow-up entry: "Oc1ccc(-c2nc(-c3n[nH]c(=S)[nH]3)cc3c2[nH]c2ccccc23)cc1"
Reply: -0.77

Task item: Follow-up entry: "COc1cc(-c2nc(-c3nnc(SC)o3)cc3c2[nH]c2ccccc23)ccc1O"
Reply: 1.18

---

Below, each entry is listed with its recorded LC50 (concentration killing 50% of cells).
# Assay details: Growth inhibition of human PCO3 cells after 48 hrs by sulforhodamine B assay
# Type: functional
# Condition: PCO3, 48 h
Numeric only. Scale: µM

INSERT INTO assay_data (chemical_smiles, observed) VALUES
  ('CSc1nnc(-c2cc3c([nH]c4ccccc43)c(-c3ccc(O)cc3)n2)o1', 59.2);

Now let's try a different one.
Task item: Requested field: LC50 (concentration killing 50% of cells). Item: "CSc1nnc(-c2cc3c([nH]c4ccccc43)c(-c3ccccc3Cl)n2)o1"
Reply: 73.5

---

# System: UACC-62
# Assay details: Growth inhibition of human UACC-62 cells after 48 hrs by sulforhodamine B assay
# Type: functional
# Condition: UACC-62, 48 h
Measured property: GI50 (µM)
Numeric only. Scale: µM

Worked set:
INSERT INTO assay_data (chemical_smiles, test_system, observed) VALUES
  ('Nn1c(-c2cc3c([nH]c4ccccc43)c(-c3ccccc3Cl)n2)n[nH]c1=S', 'UACC-62', 20.2),
  ('Oc1ccc(-c2nc(-c3n[nH]c(=S)[nH]3)cc3c2[nH]c2ccccc23)cc1', 'UACC-62', 10.6),
  ('COc1ccc(-c2nc(-c3n[nH]c(=S)[nH]3)cc3c2[nH]c2ccccc23)cc1', 'UACC-62', 66.8),
  ('CSc1nnc(-c2cc3c([nH]c4ccccc43)c(-c3ccccc3Cl)n2)o1', 'UACC-62', 15.2),
  ('COc1cc(-c2nc(-c3nnc(SC)o3)cc3c2[nH]c2ccccc23)ccc1O', 'UACC-62', 17.8),
  ('Nn1c(-c2cc3c([nH]c4ccccc43)c(-c3ccc(O)cc3)n2)n[nH]c1=S', 'UACC-62', 22.5);

Task item: Requested field: GI50. Item: "COc1ccc(-c2nc(-c3nnc(SC)o3)cc3c2[nH]c2ccccc23)cc1"
Reply: 29.1

Task item: Follow-up entry: "CSc1nnc(-c2cc3c([nH]c4ccccc43)c(-c3ccccc3)n2)o1"
Reply: 99.5

Task item: Follow-up entry: "COc1ccc(-c2nc(-c3n[nH]c(=S)o3)cc3c2[nH]c2ccccc23)cc1"
Reply: 16.8

Task item: Follow-up entry: "S=c1[nH]nc(-c2cc3c([nH]c4ccccc43)c(-c3ccccc3)n2)[nH]1"
Reply: 6.36

Task item: Follow-up entry: "CSc1nnc(-c2cc3c([nH]c4ccccc43)c(-c3cccc([N+](=O)[O-])c3)n2)o1"
Reply: 16.4

Task item: Follow-up entry: "CSc1nnc(-c2cc3c([nH]c4ccccc43)c(-c3ccccc3Cl)n2)n1N"
Reply: 18.6

---

# System: K562
# Assay details: Growth inhibition of human K-562 cells after 48 hrs by sulforhodamine B assay
# Assay type: functional
# Condition: K562, 48 h
Measured property: TGI (µM)
Numeric only. Scale: µM

Worked set:
INSERT INTO assay_data (chemical_smiles, observed) VALUES
  ('CSc1nnc(-c2cc3c([nH]c4ccccc43)c(-c3ccc(O)cc3)n2)o1', 28.8),
  ('S=c1[nH]nc(-c2cc3c([nH]c4ccccc43)c(-c3ccccc3Cl)n2)o1', 74),
  ('CSc1nnc(-c2cc3c([nH]c4ccccc43)c(-c3ccccc3)n2)o1', 10.4);

Now let's try a different one.
Task item: Requested field: TGI. Item: "S=c1[nH]nc(-c2cc3c([nH]c4ccccc43)c(-c3ccccc3)n2)o1"
Reply: 54.4
